Molecular target: T1, recombinant human soluble gpNMB (recombinant human gpNMB-FLAG-His) (human, UniProt Q14956 23-498)
T1 sequence: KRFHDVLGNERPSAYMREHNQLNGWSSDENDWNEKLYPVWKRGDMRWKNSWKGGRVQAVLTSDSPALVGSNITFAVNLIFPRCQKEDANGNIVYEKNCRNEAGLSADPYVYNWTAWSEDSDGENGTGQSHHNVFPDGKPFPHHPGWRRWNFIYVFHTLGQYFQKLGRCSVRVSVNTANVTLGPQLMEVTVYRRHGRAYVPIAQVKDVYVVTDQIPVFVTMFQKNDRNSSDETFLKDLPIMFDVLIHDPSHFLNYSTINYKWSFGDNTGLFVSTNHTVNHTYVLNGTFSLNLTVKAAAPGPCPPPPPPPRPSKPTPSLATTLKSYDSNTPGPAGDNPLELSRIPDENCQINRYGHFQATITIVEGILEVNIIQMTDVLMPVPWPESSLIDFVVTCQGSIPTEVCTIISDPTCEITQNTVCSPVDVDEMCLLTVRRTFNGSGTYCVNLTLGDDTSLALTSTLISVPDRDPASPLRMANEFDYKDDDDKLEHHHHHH
Assay: SPR, antibody 100 nM over captured gpNMB-FLAG-His, 25C
endpoint.label: log10 koff (log10 of the value in s⁻¹)

{"columns": ["binder", "log10 koff"],
 "data": [
  ["GPN15-2 (antibody, V domains shown, monoclonal with mouse IgG constant regions) VH: QVQLQQPGAELVKPGASVKMSCKASGYTFTNHNMHWVKQTPGQGLEWIGAFYTGNGDTSYNQKFKGKATLTADKSSSTAYIQLSSLTSEDSAVYYCARERYDGYYIAMDYWGQGTSVTVSS VL: QIVLTQSPAFMSVSPGEKVTMTCSASSSVYYMFWYQQKPRSSPKPWIYLTSKLASGVPARFSGSGSGTSYSVTISSMEAEDAATYYCQQWSSNPQWTFGGGTKLEIK", -6.22],
  ["GPN18-1 (antibody, V domains shown, monoclonal with mouse IgG constant regions) VH: QVTLKESGPGILQPSQTLSLTCSFSGFSLSTSVMGVGWIRQPSGKGLEWLADIWWDDDKDYNPSLKSRLTISKDTSKNQVFLKIASVDTADTATYYCARAYYSNYEYYGMDYWGQGTSVTVSS VL: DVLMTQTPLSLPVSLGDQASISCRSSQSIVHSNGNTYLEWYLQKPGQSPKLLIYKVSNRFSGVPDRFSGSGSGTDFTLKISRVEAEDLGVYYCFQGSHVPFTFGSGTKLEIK", -3.27],
  ["GPN15-3 (antibody, V domains shown, monoclonal with mouse IgG constant regions) VH: QVTLKESGPGILQPSQTLSLTCSFSGFSLTTSGMGVGWIRQPSGKGLEWLADMWWDDDKNYNPSLKSRLTISKDNSKKQVFLKIASVDTADTATYYCARRVYSSWFAYWGQGTLVTVSA VL: DIVMTQSQKFMSTSVGDRVSVTCKASQNVGANVAWYQQKPGQSPKTLIYSASYRYGGVPDRFTGSGSGTDFTFTITNVQSEDLAEYFCQQYNNYPLTFGAGTKLDLK", -3.43],
  ["GPN06-1 (antibody, V domains shown, monoclonal with mouse IgG constant regions) VH: QVQLQQPGAEIVRPGASVKLSCKASGYTFTDNWMGWVKQRPGQGLEWIGAIDPSDSFTNYNQNFKGKATLTVDTSSSTAYMQLSSLTSEDSAVYFCTRSGYYGSPKLGGDYWGQGTTLTVSS VL: QIVLTQSPAIMSASLGEEITLTCSASSSISYMHWYQQKSGTSPKLLIYSTSNLASGVPSRFSGSGSGTFYSLTISSVEAEDAADYYCHQWNSYPCTFGGGTKLEIK", -3.31],
  ["GPN11-10 (antibody, V domains shown, monoclonal with mouse IgG constant regions) VH: QVNLLQSGAALVKPGASVRLSCKTSGYTFTDCYIHWVRQSHGKSLEWIGFINPNSGYTFYNEKFKSKATLTVAKSTNTAYMELSRLTSEDSATYFCTRGDYYTSNLYDWFAYWGQGTLVTVSS VL: DTVMTQSPASMSTSVGERVTVNCKASQTVGTVVAWFQQKPGQSPKRLIYWATNRHTGVPDRFTGSGFGRDFSLTISNVEAEDLAVYYCLQYGSVPPTFGGGTKLELK", -3.00]
]}
